- Measured on: Procathepsin L (Homo sapiens)
- Sequence (P07711 whole entry): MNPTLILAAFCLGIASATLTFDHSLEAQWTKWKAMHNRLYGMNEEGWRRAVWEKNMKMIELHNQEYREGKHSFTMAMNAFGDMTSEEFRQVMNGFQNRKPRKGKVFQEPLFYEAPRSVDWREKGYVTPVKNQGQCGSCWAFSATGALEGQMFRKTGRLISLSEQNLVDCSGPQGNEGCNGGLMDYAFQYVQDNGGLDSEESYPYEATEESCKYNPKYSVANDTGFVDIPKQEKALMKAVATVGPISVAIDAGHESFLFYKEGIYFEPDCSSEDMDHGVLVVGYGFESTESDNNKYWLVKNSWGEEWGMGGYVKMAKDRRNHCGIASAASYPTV
// returns not fulfilled unless Ki is strictly below 50 nM, in which case fulfilled

{"columns": ["Smiles data", "Measured on", "Category label"],
 "data": [
  ["CC(=O)/C=C/[C@H](CCc1ccccc1)NC(=O)[C@H](Cc1ccccc1)NC(=O)c1cccc(F)c1", "Procathepsin L (Homo sapiens)", "fulfilled"],
  ["CC(=O)/C=C/[C@H](CCc1ccccc1)NC(=O)[C@H](CCc1ccccc1)NC(=O)OCc1ccccc1", "Procathepsin L (Homo sapiens)", "not fulfilled"],
  ["CC(=O)/C=C/[C@H](CCc1ccccc1)NC(=O)[C@H](Cc1ccccc1)NC(=O)c1ccc2c(c1)OCO2", "Procathepsin L (Homo sapiens)", "fulfilled"],
  ["CC(=O)/C=C/[C@H](CCc1ccccc1)NC(=O)[C@H](Cc1ccccc1)NC(=O)c1ccc(F)cc1F", "Procathepsin L (Homo sapiens)", "fulfilled"],
  ["CC(=O)/C=C/[C@H](CCc1ccccc1)NC(=O)[C@H](Cc1ccccc1)NC(=O)Cc1ccc2c(c1)OCO2", "Procathepsin L (Homo sapiens)", "not fulfilled"],
  ["CC(=O)/C=C/[C@H](CCc1ccccc1)NC(=O)[C@H](Cc1ccccc1)NC(=O)N1CCOCC1", "Procathepsin L (Homo sapiens)", "not fulfilled"],
  ["CC(=O)/C=C/[C@H](CCc1ccccc1)NC(=O)[C@H](Cc1ccccc1)NC(=O)c1c(F)cccc1F", "Procathepsin L (Homo sapiens)", "not fulfilled"]
]}

====

pKi: −log10 of the molar value.
// Rhodesain (Trypanosoma brucei rhodesiense, UniProt Q95PM0) pKi records

{"columns": ["Smiles data", "Measured on", "pKi"],
 "data": [
  ["CC(=O)/C=C/[C@H](CCc1ccccc1)NC(=O)[C@H](CCc1ccccc1)NC(=O)OCc1ccccc1", "Rhodesain (Trypanosoma brucei rhodesiense, UniProt Q95PM0)", 8.26],
  ["CC(=O)/C=C/[C@H](CCc1ccccc1)NC(=O)[C@H](Cc1ccccc1)NC(=O)c1ccc(C(F)(F)F)cc1", "Rhodesain (Trypanosoma brucei rhodesiense, UniProt Q95PM0)", 11.36],
  ["CC(=O)/C=C/[C@H](CCc1ccccc1)NC(=O)[C@H](Cc1ccccc1)NC(=O)c1cc(F)cc(F)c1", "Rhodesain (Trypanosoma brucei rhodesiense, UniProt Q95PM0)", 10.82]
]}

====

- Tested on: Trypanosoma brucei brucei
- Assay comment: Antitrypanosomal activity against blood stage form of Trypanosoma brucei brucei 449 incubated for 24 hrs by ATPlite assay
- Assay type: functional, organism-based
- Experimental parameters: Trypanosoma brucei, 449, 24 h
Reported endpoint: EC50 (µM)

{"columns": ["Smiles data", "Measured on", "Value observed"],
 "data": [
  ["CC(=O)/C=C/[C@H](CCc1ccccc1)NC(=O)[C@H](Cc1ccccc1)NC(=O)c1ccc(F)cc1F", "Trypanosoma brucei brucei", 0.74],
  ["CC(=O)/C=C/[C@H](CCc1ccccc1)NC(=O)[C@H](Cc1ccccc1)NC(=O)c1ccc2c(c1)OCO2", "Trypanosoma brucei brucei", 5],
  ["CC(=O)/C=C/[C@H](CCc1ccccc1)NC(=O)[C@H](Cc1ccccc1)NC(=O)c1ccc(Cl)cc1", "Trypanosoma brucei brucei", 4.8],
  ["CC(=O)/C=C/[C@H](CCc1ccccc1)NC(=O)[C@H](CCc1ccccc1)NC(=O)OCc1ccccc1", "Trypanosoma brucei brucei", 0.55],
  ["CC(=O)/C=C/[C@H](CCc1ccccc1)NC(=O)[C@H](Cc1ccccc1)NC(=O)c1ccc(F)cc1", "Trypanosoma brucei brucei", 5.1],
  ["CC(=O)/C=C/[C@H](CCc1ccccc1)NC(=O)[C@H](Cc1ccccc1)NC(=O)c1cc(F)cc(F)c1", "Trypanosoma brucei brucei", 4]
]}
